biological target: ΔF508 CFTR (Homo sapiens, UniProt P13569, DEL508-508); experiment: Corrector activity, YFP halide (iodide) quenching assay in FRT cells expressing ΔF508 CFTR; assay type: cell-based; parameters: expressed in transfected cells; host or cells: Fischer rat thyroid (FRT) cells; conditions: FRT cells ΔF508 CFTR/YFP, 24 hours with compound at 37° C., forskolin and genistein; read-out: Corrector EC50
Sequence (P13569 with tags, fused parts or gaps DEL508-508): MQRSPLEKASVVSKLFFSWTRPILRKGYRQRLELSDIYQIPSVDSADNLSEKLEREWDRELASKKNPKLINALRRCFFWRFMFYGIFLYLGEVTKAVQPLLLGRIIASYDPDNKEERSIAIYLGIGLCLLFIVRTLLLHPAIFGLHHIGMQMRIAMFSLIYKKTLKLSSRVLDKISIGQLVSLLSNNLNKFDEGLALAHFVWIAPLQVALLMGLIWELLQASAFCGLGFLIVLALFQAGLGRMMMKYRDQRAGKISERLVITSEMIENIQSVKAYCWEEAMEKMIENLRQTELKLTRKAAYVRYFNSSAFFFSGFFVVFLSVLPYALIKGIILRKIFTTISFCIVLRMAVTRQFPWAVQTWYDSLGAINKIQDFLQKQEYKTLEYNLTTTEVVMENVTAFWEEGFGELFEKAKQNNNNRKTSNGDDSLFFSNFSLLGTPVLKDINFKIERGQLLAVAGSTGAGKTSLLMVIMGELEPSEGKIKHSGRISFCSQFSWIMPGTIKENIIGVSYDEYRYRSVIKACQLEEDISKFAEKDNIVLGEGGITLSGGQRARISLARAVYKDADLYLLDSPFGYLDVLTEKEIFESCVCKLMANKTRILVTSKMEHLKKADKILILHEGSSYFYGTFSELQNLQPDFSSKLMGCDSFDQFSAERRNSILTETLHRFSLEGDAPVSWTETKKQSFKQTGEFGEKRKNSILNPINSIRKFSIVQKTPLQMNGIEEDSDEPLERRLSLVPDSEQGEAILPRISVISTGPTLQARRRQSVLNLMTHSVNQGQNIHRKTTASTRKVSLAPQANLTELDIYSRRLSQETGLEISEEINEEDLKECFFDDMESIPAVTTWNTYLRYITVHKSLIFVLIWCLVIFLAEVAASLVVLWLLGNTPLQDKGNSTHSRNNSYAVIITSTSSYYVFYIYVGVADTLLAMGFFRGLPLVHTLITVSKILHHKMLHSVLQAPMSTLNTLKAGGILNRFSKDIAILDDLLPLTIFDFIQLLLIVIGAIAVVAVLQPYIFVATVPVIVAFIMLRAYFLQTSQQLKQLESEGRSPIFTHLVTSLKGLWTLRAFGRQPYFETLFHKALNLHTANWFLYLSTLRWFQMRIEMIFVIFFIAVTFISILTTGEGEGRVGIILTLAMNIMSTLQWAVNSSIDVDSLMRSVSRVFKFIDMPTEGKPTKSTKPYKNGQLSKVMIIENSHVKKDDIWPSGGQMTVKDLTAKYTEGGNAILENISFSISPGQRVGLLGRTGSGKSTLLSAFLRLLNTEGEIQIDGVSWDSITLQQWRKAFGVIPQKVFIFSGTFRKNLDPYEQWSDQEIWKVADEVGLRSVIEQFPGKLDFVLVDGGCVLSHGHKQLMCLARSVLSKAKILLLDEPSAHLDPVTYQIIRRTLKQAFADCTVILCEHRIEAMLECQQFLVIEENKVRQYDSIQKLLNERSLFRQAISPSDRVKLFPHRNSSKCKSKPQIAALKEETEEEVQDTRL
pEC50: −log10 of the molar value.

- Molecule: "CC(C)(C)n1nc(Oc2ccc3c(c2)CCC3)c2c(N)ncnc21"
  pEC50: "5.00 to 5.30"
- Molecule: "CCNC(=O)Nc1ncnc2c1c(-c1ccc(Cl)cc1)nn2C(C)(C)C"
  pEC50: "< 4.82"
- Molecule: "Nc1ncnc2c1c(-c1ccc(Cl)cc1)nn2[C@H]1CCOC1"
  pEC50: "< 4.82"
- Molecule: "CC(C)(C)n1nc(-c2ccc(Cl)cc2)c2c(NC(=O)O[C@H]3CCOC3)ncnc21"
  pEC50: "5.00 to 5.30"
- Molecule: "CCn1nc([S+]([O-])c2cccc(Cl)c2)c2c(N)ncnc21 (stereo not drawn)"
  pEC50: "< 4.82"
- Molecule: "CC(C)(C)n1nc(-c2ccc(Cl)cc2)c2c(NC(=O)O[C@@H]3CCOC3)ncnc21"
  pEC50: "5.00 to 5.30"
- Molecule: "CC(C)(C)n1cc(-c2cccc(Cl)c2)c2c(N)ncnc21"
  pEC50: "< 4.82"
- Molecule: "CC(C)(C)OC(=O)n1nc(Sc2cccc(Cl)c2)c2c(N)ncnc21"
  pEC50: "< 4.82"
- Molecule: "CCn1nc(Nc2ccc3c(c2)OC(F)(F)O3)c2c(N)ncnc21"
  pEC50: "< 4.82"
